Let's look at some molecules and their measured pIC50.
Molecular target: human NaV 1.8 (Homo sapiens, UniProt Q9Y5Y9)
Sequence (Q9Y5Y9 126-399 limits assumed): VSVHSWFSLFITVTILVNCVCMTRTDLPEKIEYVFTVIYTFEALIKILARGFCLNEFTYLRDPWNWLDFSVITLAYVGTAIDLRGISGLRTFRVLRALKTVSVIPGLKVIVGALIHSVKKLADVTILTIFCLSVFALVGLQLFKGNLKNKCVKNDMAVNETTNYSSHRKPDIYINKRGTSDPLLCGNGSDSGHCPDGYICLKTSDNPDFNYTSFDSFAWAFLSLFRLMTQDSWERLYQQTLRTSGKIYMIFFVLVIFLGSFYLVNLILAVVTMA
Sequence (Q9Y5Y9 660-890 limits assumed): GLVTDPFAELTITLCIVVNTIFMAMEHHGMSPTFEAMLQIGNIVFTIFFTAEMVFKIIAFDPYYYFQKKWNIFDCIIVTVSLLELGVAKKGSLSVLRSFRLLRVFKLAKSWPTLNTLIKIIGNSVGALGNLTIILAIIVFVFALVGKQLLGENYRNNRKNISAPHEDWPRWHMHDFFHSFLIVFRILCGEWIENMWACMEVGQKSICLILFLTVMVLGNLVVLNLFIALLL
Sequence (Q9Y5Y9 1148-1722 limits assumed): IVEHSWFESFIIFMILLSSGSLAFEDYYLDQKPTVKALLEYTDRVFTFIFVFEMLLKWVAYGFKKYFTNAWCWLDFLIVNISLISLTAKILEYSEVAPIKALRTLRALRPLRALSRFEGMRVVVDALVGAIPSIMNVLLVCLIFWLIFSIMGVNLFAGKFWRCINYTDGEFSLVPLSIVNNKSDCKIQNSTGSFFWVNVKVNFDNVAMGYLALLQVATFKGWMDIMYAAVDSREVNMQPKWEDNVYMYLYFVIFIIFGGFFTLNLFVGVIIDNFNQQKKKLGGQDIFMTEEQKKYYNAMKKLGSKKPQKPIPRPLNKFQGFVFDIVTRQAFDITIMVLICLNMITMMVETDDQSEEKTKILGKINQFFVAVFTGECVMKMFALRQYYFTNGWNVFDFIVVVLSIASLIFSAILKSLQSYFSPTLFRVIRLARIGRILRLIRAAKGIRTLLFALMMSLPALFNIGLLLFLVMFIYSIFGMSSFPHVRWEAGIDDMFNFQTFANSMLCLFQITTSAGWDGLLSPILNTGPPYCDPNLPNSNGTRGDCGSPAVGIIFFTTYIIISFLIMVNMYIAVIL
Test: E-VIPR assay detecting and measuring NaV inhibition properties
Type: cell-based
Conditions: HEK cells expressing truncated human NaV 1.8; no human serum; read-out: IC50 in the E-VIPR Assay
pIC50: −log10 of the molar value.

Example entries begin here.
| molecule | pIC50 |
| --- | --- |
| COc1c([C@H]2[C@H](C(=O)Nc3cnc(CO)n3C)O[C@@](C)(C(F)(F)F)[C@H]2C)ccc(F)c1F | 7.00 to 8.00 |
| COCC(NC(C)C)c1ccc(NC(=O)[C@@H]2O[C@@](C)(C(F)(F)F)[C@@H](C)[C@H]2c2ccc(F)c(F)c2OC)cn1 (single isomer, unassigned) [Compound 420] | ≤ 6.00 |
| COc1c([C@H]2[C@H](C(=O)Nc3cc(N4C(=O)CN(C)C[C@H]4C)ncn3)O[C@@](C)(C(F)(F)F)[C@H]2C)ccc(F)c1F | 7.00 to 8.00 |
| C[C@@H]1[C@H](c2ccc(F)c(F)c2OC(F)F)[C@@H](C(=O)Nc2ccc(CCO)nc2)O[C@]1(C)C(F)(F)F (single isomer, unassigned) | ≤ 6.00 |
| COCCOc1c([C@H]2[C@H](C(=O)Nc3ccc4nncn4c3)O[C@@](C)(C(F)(F)F)[C@H]2C)ccc(F)c1F | > 8.00 |

Which pIC50 is listed for `COc1c([C@H]2[C@H](C(=O)Nc3cc(C)nn3CCC#N)O[C@@](C)(C(F)(F)F)[C@H]2C)ccc(F)c1F` ?
≤ 6.00

Another molecule: COc1c([C@H]2[C@H](C(=O)Nc3cnc(C(F)CO)nc3)O[C@@](C)(C(F)(F)F)[C@H]2C)ccc(F)c1F (some centres unmarked)
7.00 to 8.00

Now the same for `COc1c([C@H]2[C@H](C(=O)Nc3ccnc(N(C)C(=O)CN(C)C)c3)O[C@@](C)(C(F)(F)F)[C@H]2C)ccc(F)c1F`
> 8.00

And what about the molecule COc1c([C@H]2[C@H](C(=O)Nc3ccnc(C(C)(O)CF)c3)O[C@@](C)(C(F)(F)F)[C@H]2C)ccc(F)c1F (single isomer, unassigned) ?
> 8.00

Follow-up entry: `COCc1cc(CNC(=O)[C@@H]2O[C@@](C)(C(F)(F)F)[C@@H](C)[C@H]2c2ccc(F)c(F)c2OC)n[nH]1`
≤ 6.00

C[C@H]1[C@@H](c2ccc(F)c(F)c2OC(F)F)[C@H](C(=O)Nc2ccnc(CCO)c2)O[C@@]1(C)C(F)(F)F (single isomer, unassigned) , same question.
> 8.00

Try COCC(N)c1cc(NC(=O)[C@@H]2O[C@@](C)(C(F)(F)F)[C@@H](C)[C@H]2c2ccc(F)c(F)c2OC)c(F)cn1 (single isomer, unassigned) [Compound 423] next.
> 8.00

Same thing, different molecule: `COc1c([C@H]2[C@H](C(=O)Nc3cc(CO)n(C)n3)O[C@@](C)(C(F)(F)F)[C@H]2C)ccc(F)c1F`
6.00 to 7.00
